# assay overview: Mean residence time in rat at 0.5 mg/kg, iv
# Format: ADME, organism-based
# Set-up: dose 0.5 mg/kg, route intravenous
# condition context: in vivo
outcome measure: MRT (min)
Give the quantity in min, number only.

test smiles	MRT, min
CCS(=O)(=O)CCN(C(=O)Cc1ccc(F)c(C(F)(F)F)c1)[C@H](C)c1nc(-c2ccccc2)cn1-c1ccc(C#N)cc1	18
CCS(=O)(=O)CCN(C(=O)Cc1ccc(F)c(C(F)(F)F)c1)[C@H](C)c1nc(C2CC2)c(Cl)n1-c1ccc(C#N)cc1	78
CCS(=O)(=O)CCN(C(=O)Cc1ccc(F)c(C(F)(F)F)c1)[C@H](C)c1nc(C2CC2)c(C(F)F)n1-c1ccc(C#N)cc1	54

*Q* Give its MRT value. Item: `CCS(=O)(=O)CCN(C(=O)Cc1ccc(F)c(C(F)(F)F)c1)[C@H](C)c1nc(C2CC2)cn1-c1ccc(C#N)cc1`
*A* 60
